test system: RPMI-8226 leukemia; assay: NCI tumour cell line growth inhibition, 48 h
Collected GI50 values appear next to each entry.
readout_kind: GI50

# molecule, readout_kind, result
measured = [
    ("Clc1ccccc1[C@@H]1C[C@@H]2Cc3cc(Br)c4ccccc4c3N1O2", "GI50", "4940 nM"),
    ("COc1cccc(-n2ncc3c(N/N=C/c4ccc(C)cc4)ncnc32)c1", "GI50", "> 25000 nM"),
    ("CCCCNCCC(O)c1cc2ccc(C(F)(F)F)cc2c2cc(C(F)(F)F)ccc12 (stereo not given)", "GI50", "2040 nM"),
    ("COc1ccc(N2C(=O)/C(=C/C(Cl)=C/c3ccc([N+](=O)[O-])cc3)SC2=S)cc1", "GI50", "268 nM"),
    ("CCC#CC[C@H](O)C/C=C1/C(=O)C=C[C@@H]1C/C=C\\CCCC(=O)OC", "GI50", "657 nM"),
]
